experiment summary: Half life in Sprague-Dawley rat at 20 mg/kg, po after 0.25 to 24 hrs by LC-MS/MS analysis
Assay type: ADME, organism-based
experimental conditions: in vivo
measured attribute: half-life (min)
API: value field is a number in min; no unit string.

Asked: I am curious: what half-life value has been reported for `CC[C@H]1OC(=O)[C@@](C)(F)C(=O)[C@H](C)[C@@H](O[C@@H]2O[C@H](C)C[C@H](N(C)C)[C@H]2O)[C@](C)(OC)C[C@@H](C)/C(=N\OC/C=C/c2ccc3c(c2)c(=O)c(C(N)=O)cn3CC)[C@H](C)[C@H]2OC(=O)O[C@@]21C` ?
Given back: 182

Asked: Name the reported half-life value associated with the compound CC[C@H]1OC(=O)[C@H](C)C(=O)[C@H](C)[C@@H](O[C@@H]2O[C@H](C)C[C@H](N(C)C)[C@H]2O)[C@](C)(OC)C[C@@H](C)C(=O)[C@H](C)[C@H]2N(CCCCn3cnc(-c4cccnc4)c3)C(=O)O[C@]12C [TELITHROMYCIN]
Given back: 73.2

Asked: Please report the recorded half-life for `CC[C@H]1OC(=O)[C@@](C)(F)C(=O)[C@H](C)[C@@H](O[C@@H]2O[C@H](C)C[C@H](N(C)C)[C@H]2O)[C@](C)(OC/C=C/c2ccc3c(c2)c(=O)c(C(N)=O)cn3C2CC2)C[C@@H](C)/C(=N\OC)[C@H](C)[C@H]2OC(=O)O[C@@]21C` .
Given back: 260

Asked: Would you mind telling me what half-life value was observed for `CC[C@H]1OC(=O)[C@@](C)(F)C(=O)[C@H](C)[C@@H](O[C@@H]2O[C@H](C)C[C@H](N(C)C)[C@H]2O)[C@](C)(OC)C[C@@H](C)/C(=N\OCC#Cc2ccc3c(c2)c(=O)c(C(N)=O)cn3CC)[C@H](C)[C@H]2OC(=O)O[C@@]21C` ?
Given back: 192

----------
System: Streptococcus pyogenes
experiment summary: Bactericidal activity against MLS-resistant Streptococcus pyogenes 12-206 expressing constitutive ermA gene pretreated followed by subculture in absence of compound measured after 24 hrs
Assay type: functional
measured attribute: MBC

Asked: For the molecule `CC[C@H]1OC(=O)[C@@](C)(F)C(=O)[C@H](C)[C@@H](O[C@@H]2O[C@H](C)C[C@H](N(C)C)[C@H]2O)[C@](C)(OC)C[C@@H](C)/C(=N\OCC#Cc2ccc3c(c2)c(=O)c(C(N)=O)cn3C2CC2)[C@H](C)[C@H]2OC(=O)O[C@@]21C` , what MBC is on record?
Given back: > 8 µg/mL

Asked: Given `CC[C@H]1OC(=O)[C@@](C)(F)C(=O)[C@H](C)[C@@H](O[C@@H]2O[C@H](C)C[C@H](N(C)C)[C@H]2O)[C@](C)(OC)C[C@@H](C)/C(=N\OCC#Cc2ccc3c(c2)c(=O)c(C(=O)NC)cn3C2CC2)[C@H](C)[C@H]2OC(=O)O[C@@]21C` , state its recorded MBC.
Given back: > 4 µg/mL

Asked: Please look up its MBC: `CC[C@H]1OC(=O)[C@@](C)(F)C(=O)[C@H](C)[C@@H](O[C@@H]2O[C@H](C)C[C@H](N(C)C)[C@H]2O)[C@](C)(OC)C[C@@H](C)/C(=N\OC/C=C/c2ccc3c(c2)c(=O)c(C(N)=O)cn3CC)[C@H](C)[C@H]2OC(=O)O[C@@]21C`
Given back: > 4 µg/mL

Asked: Report MBC for `CC[C@H]1OC(=O)[C@@](C)(F)C(=O)[C@H](C)[C@@H](O[C@@H]2O[C@H](C)C[C@H](N(C)C)[C@H]2O)[C@](C)(OC/C=C/c2ccc3c(c2)c(=O)c(C(=O)NC)cn3C2CC2)C[C@@H](C)/C(=N\OC)[C@H](C)[C@H]2OC(=O)O[C@@]21C` please.
Given back: > 0.25 µg/mL

Asked: Query: MBC; subject: `CC[C@H]1OC(=O)[C@@](C)(F)C(=O)[C@H](C)[C@@H](O[C@@H]2O[C@H](C)C[C@H](N(C)C)[C@H]2O)[C@](C)(OC/C=C/c2ccc3c(c2)c(=O)c(C(N)=O)cn3C2CC2)C[C@@H](C)/C(=N\OC)[C@H](C)[C@H]2OC(=O)O[C@@]21C`
Given back: > 0.125 µg/mL

Asked: # input molecule: `CC[C@H]1OC(=O)[C@@](C)(F)C(=O)[C@H](C)[C@@H](O[C@@H]2O[C@H](C)C[C@H](N(C)C)[C@H]2O)[C@](C)(OC)C[C@@H](C)/C(=N\OCC#Cc2ccc3c(c2)c(=O)c(C(N)=O)cn3CC)[C@H](C)[C@H]2OC(=O)O[C@@]21C` ; wanted: its MBC
Given back: > 1 µg/mL
